Values from ChEMBL document CHEMBL1130375

TEST_SYSTEM: Endothelin-1 receptor (Rattus norvegicus, UniProt P26684)
Sequence (P26684 whole entry): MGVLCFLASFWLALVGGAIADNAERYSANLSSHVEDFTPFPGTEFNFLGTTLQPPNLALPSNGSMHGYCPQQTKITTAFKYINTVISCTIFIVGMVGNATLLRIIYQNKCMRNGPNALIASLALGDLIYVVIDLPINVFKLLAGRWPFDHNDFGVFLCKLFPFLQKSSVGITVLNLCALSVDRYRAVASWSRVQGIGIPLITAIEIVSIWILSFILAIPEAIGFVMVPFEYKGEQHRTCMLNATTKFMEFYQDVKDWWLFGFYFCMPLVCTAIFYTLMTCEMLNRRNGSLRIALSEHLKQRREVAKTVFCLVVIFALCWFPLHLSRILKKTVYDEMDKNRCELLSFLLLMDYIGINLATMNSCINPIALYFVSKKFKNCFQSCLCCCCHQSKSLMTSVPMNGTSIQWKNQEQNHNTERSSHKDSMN
TEST_DESCRIPTION: Inhibition of specific binding of [125I]ET1 (endothelin 1) to the endothelin A receptor of rat aorta membranes
Type: cell membranes, Membrane
Could you please report measured pIC50 for the items listed next?
# reply with the number alone; pIC50 is -log10 of concentration in mol/L

[ask] Looking for the measured pIC50 of CCCc1cc(C(=O)O)ccc1OC(C(=O)NS(=O)(=O)c1ccc(C(C)C)cc1)c1ccc2c(c1)OCO2 (centres undefined) , can you help?
[reply] 7.39

[ask] Looking for the measured pIC50 of CCc1cc(C)nn(C(C(=O)NS(=O)(=O)c2ccc(C(C)C)cc2)c2ccc3c(c2)OCO3)c1=O (centres undefined) , can you help?
[reply] 7.49

[ask] Looking for the measured pIC50 of Cc1cc(C)c(=O)n(C(C(=O)NS(=O)(=O)c2ccc(C(C)(C)C)cc2)c2ccc3c(c2)OCO3)n1 (single isomer, unassigned; form 2) , can you help?
[reply] 7.74
